Attribution: patent EP4332093A1

Items are presented alongside their recorded IC50.
molecular target: 5-HT2A receptor (Homo sapiens); assay: Calcium ion mobility in cells stably expressing 5-HT2A receptors (Flp-In-CHO-5HT2A, FLIPR); assay type: cell-based; set-up: expressed in transfected cells; details: Flp-In-CHO-5HT2A stable pool, 5HT stimulation
Sequence (P28223 whole entry): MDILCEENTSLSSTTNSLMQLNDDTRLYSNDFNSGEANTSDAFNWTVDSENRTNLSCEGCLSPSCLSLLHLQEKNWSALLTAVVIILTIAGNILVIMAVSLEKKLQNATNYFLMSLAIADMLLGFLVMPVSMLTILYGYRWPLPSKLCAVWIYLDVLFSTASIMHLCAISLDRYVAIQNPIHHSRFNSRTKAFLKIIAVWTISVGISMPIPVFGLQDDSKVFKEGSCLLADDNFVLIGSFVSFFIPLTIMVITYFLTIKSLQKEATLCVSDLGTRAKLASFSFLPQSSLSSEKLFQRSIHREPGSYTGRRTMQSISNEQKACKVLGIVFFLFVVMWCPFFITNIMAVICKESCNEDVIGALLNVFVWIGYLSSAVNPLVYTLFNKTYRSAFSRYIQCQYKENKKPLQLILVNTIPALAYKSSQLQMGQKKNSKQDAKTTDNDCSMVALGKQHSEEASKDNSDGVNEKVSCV
Express the result in nM but write the number alone.

Cc1cc(CC(=O)NC2CC(CCN3CCN(c4cccc(Cl)c4Cl)CC3)C2)on1 (centres unmarked); 8.9
Cc1nc(C(=O)N[C@H]2C[C@H](CCN3CCN(c4cccc(Cl)c4Cl)CC3)C2)co1 [Example 18A]; 6.44
Cc1ncc(C(=O)NC2CC(CCN3CCN(c4cccc(Cl)c4Cl)CC3)C2)o1 (centres unmarked) [Example 16]; 5.78
O=C(NC1CC(CCN2CCN(c3cccc(Cl)c3Cl)CC2)C1)c1cccc2ncccc12 (centres unmarked); 7.37
CC(C)(O)C(=O)NC1CC(CCN2CCN(c3cccc(Cl)c3Cl)CC2)C1 (centres unmarked); 39
Cc1nc(C(=O)NC2CC(CCN3CCN(c4cccc(Cl)c4Cl)CC3)C2)co1 (centres unmarked); 6.4
O=C(N[C@H]1C[C@H](CCN2CCN(c3cccc(Cl)c3Cl)CC2)C1)c1cccc2ncccc12 [Example 19A]; 7.67

# evaluate next
Dear colleague, I am looking for the recorded IC50 of the following molecule: O=C(NC1CC(CCN2CCN(c3cccc(Cl)c3Cl)CC2)C1)C1(O)CC1 (centres unmarked)
13.1

---

assay: Solubility of hydrochloride and free base in different media (37°C, 24 hours, HPLC); type: physicochemical; settings: aqueous buffer, thermodynamic from solid, Buffer pH 8
MEASURE: solubility at 24 h (µg/mL)
A number alone suffices; assume µg/mL.

O=C(N[C@H]1C[C@H](CCN2CCN(c3cccc(Cl)c3Cl)CC2)C1)c1ncco1 [crystal form B of free base]; 2

Lab note: next molecule to report on.
For Cl.O=C(N[C@H]1C[C@H](CCN2CCN(c3cccc(Cl)c3Cl)CC2)C1)c1ncco1 [hydrochloride] , what is its reported solubility at 24 h?
1

---

assay: Solubility of hydrochloride and free base in different media (37°C, 24 hours, HPLC); format: physicochemical; conditions: aqueous buffer, thermodynamic from solid, Buffer pH 3
MEASURE: solubility at 24 h

O=C(N[C@H]1C[C@H](CCN2CCN(c3cccc(Cl)c3Cl)CC2)C1)c1ncco1 [crystal form B of free base]; > 1000 µg/mL

Can you look up the measured solubility at 24 h of Cl.O=C(N[C@H]1C[C@H](CCN2CCN(c3cccc(Cl)c3Cl)CC2)C1)c1ncco1 [hydrochloride] for me?
> 1000 µg/mL

---

assay: Pharmacokinetic assay in Balb/c mice (plasma and brain tissue); assay type: in vivo; settings: male, mouse, po, Brain, p.o. 5 mg/kg, read-out: Plasma concentration Cmax
If the reported Cmax equals or exceeds 500 ng/mL, assign Satisfied. If not, assign Not satisfied.

O=C(NC1CC(CCN2CCN(c3cccc(Cl)c3Cl)CC2)C1)c1ncco1 (centres unmarked); Satisfied
O=C(N[C@H]1C[C@H](CCN2CCN(c3cccc(Cl)c3Cl)CC2)C1)c1ncco1 [Example 12A]; Satisfied
CCN(C)C(=O)NC1CC(CCN2CCN(c3cccc4sccc34)CC2)C1 (centres unmarked); Not satisfied
O=C(N[C@H]1C[C@@H](CCN2CCN(c3cccc(Cl)c3Cl)CC2)C1)c1ncco1 [Example 12B]; Satisfied
O=C(N[C@H]1C[C@H](CCN2CCN(c3cccc(Cl)c3Cl)CC2)C1)c1cccc2ncccc12 [Example 19A]; Not satisfied

Threshold query (Cmax >= 500 ng/mL) on O=C(N[C@H]1C[C@@H](CCN2CCN(c3cccc(Cl)c3Cl)CC2)C1)C1(O)CC1
Not satisfied

Determine whether measured Cmax meets or exceeds 500 ng/mL for O=C(N[C@H]1C[C@H](CCN2CCN(c3cccc(Cl)c3Cl)CC2)C1)c1nccs1
Not satisfied

# check: Cmax of O=C(NC1CC(CCN2CCCN(c3cccc(Cl)c3Cl)CC2)C1)c1ccco1 (centres unmarked) is greater than or equal to 500 ng/mL
Not satisfied

Does the molecule O=C(NC1CC(CCN2CCN(c3cccc(Cl)c3Cl)CC2)C1)C1(O)CC1 (centres unmarked) have recorded Cmax that is 500 ng/mL or more?
Not satisfied

Threshold query (Cmax >= 500 ng/mL) on O=C(NC1CC(CCN2CCN(c3cccc(Cl)c3Cl)CC2)C1)c1nccs1 (centres unmarked)
Satisfied

For this molecule, is measured Cmax 500 ng/mL or higher? O=C(N[C@H]1C[C@H](CCN2CCN(c3cccc(Cl)c3Cl)CC2)C1)C1(O)CC1
Not satisfied

---

Each record here notes measured half-life.
test: Pharmacokinetic assay in Balb/c mice (plasma and brain tissue); assay type: in vivo; conditions: male, mouse, po, Plasma, p.o. 5 mg/kg, read-out: Half life t1/2 (converted)
Field format: number, assumed h, no unit text.

Look over these answered cases.
O=C(NC1CC(CCN2CCN(c3cccc(Cl)c3Cl)CC2)C1)c1ncco1 (stereo not drawn); 2.8
O=C(N[C@H]1C[C@H](CCN2CCN(c3cccc(Cl)c3Cl)CC2)C1)c1ncco1 [Example 12A]; 1.9

Value lookup for half-life; key = O=C(N[C@H]1C[C@H](CCN2CCN(c3cccc(Cl)c3Cl)CC2)C1)c1nccs1
3.7

---

Recorded AUC(0-t) values for a group of compounds are listed next.
test: Pharmacokinetic assay in Balb/c mice (plasma and brain tissue); assay type: in vivo; conditions: male, mouse, po, Brain, p.o. 5 mg/kg, read-out: Area under curve AUC0-t
Answer format: numeric, ng·h/mL implied, no suffix.

Please review the following examples before continuing.
O=C(NC1CC(CCN2CCCN(c3cccc(Cl)c3Cl)CC2)C1)c1ccco1 (centres unmarked); 1540
O=C(N[C@H]1C[C@H](CCN2CCN(c3cccc(Cl)c3Cl)CC2)C1)c1ncco1 [Example 12A]; 8130

Need AUC(0-t), item O=C(NC1CC(CCN2CCN(c3cccc(Cl)c3Cl)CC2)C1)c1ncco1 (centres unmarked)
4830

Using the record for O=C(NC1CC(CCN2CCN(c3cccc(Cl)c3Cl)CC2)C1)c1nccs1 (centres unmarked) , report its AUC(0-t).
2080

Given O=C(NC1CC(CCN2CCN(c3cccc(Cl)c3Cl)CC2)C1)C1(O)CC1 (centres unmarked) , state its recorded AUC(0-t).
1970

Please give the measured AUC(0-t) for this compound: O=C(N[C@H]1C[C@@H](CCN2CCN(c3cccc(Cl)c3Cl)CC2)C1)C1(O)CC1
900

Entry O=C(N[C@H]1C[C@@H](CCN2CCN(c3cccc(Cl)c3Cl)CC2)C1)c1ncco1 [Example 12B] : reported AUC(0-t) = ?
5200

For O=C(N[C@H]1C[C@H](CCN2CCN(c3cccc(Cl)c3Cl)CC2)C1)c1cccc2ncccc12 [Example 19A] , what is its reported AUC(0-t)?
1240

---

target: D3 receptor (Homo sapiens); construct: expressed in transfected cells; experiment: cAMP content in cells stably expressing D3 receptors (CHO-D3, forskolin, HTRF); type: cell-based
Sequence (P35462 whole entry): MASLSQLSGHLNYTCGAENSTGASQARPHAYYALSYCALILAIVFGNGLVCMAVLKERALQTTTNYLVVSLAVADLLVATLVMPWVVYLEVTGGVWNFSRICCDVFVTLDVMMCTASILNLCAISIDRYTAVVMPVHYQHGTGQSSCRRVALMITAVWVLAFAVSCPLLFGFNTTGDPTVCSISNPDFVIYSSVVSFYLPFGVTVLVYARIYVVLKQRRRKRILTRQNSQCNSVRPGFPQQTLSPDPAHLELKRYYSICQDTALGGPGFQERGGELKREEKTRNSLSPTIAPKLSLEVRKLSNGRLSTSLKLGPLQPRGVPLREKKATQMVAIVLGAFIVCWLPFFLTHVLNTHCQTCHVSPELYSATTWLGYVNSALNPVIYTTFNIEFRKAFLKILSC
I'd appreciate it if you marked entries T when EC50 is lower than 2 nM and F when it is not.

Check out these entries, answers already filled in.
O=C(N[C@H]1C[C@H](CCN2CCN(c3cccc(Cl)c3Cl)CC2)C1)c1cccc2ncccc12 [Example 19A]; T
O=C(NC1CC(CCN2CCN(c3cccc(Cl)c3Cl)CC2)C1)c1nccs1 (centres unmarked); F
CN(C(=O)NC1CC(CCN2CCN(c3cccc(Cl)c3Cl)CC2)C1)C1CC1 (centres unmarked); T
COC1CN(C(=O)NC2CC(CCN3CCN(c4cccc(Cl)c4Cl)CC3)C2)C1 (centres unmarked); F

Strictly below 2 nM: is that where EC50 of Cc1cc(CC(=O)NC2CC(CCN3CCN(c4cccc(Cl)c4Cl)CC3)C2)on1 (centres unmarked) sits?
T

---

test: Solubility of hydrochloride and free base in different media (37°C, 24 hours, HPLC); assay type: physicochemical; details: fassgf or other biorelevant, thermodynamic from solid, FaSSGF
MEASURE: solubility at 24 h (µg/mL)
Report the figure in µg/mL without appending any unit label.

Cl.O=C(N[C@H]1C[C@H](CCN2CCN(c3cccc(Cl)c3Cl)CC2)C1)c1ncco1 [hydrochloride]; 117

Shift focus to the following entry.
Which solubility at 24 h is listed for O=C(N[C@H]1C[C@H](CCN2CCN(c3cccc(Cl)c3Cl)CC2)C1)c1ncco1 [crystal form B of free base] ?
154

---

In this section, each of the compounds is paired with its reported solubility at 24 h.
experiment: Solubility of hydrochloride and free base in different media (37°C, 24 hours, HPLC); format: physicochemical; conditions: aqueous buffer, thermodynamic from solid, Buffer pH 7
Numeric only. Scale: µg/mL

Cl.O=C(N[C@H]1C[C@H](CCN2CCN(c3cccc(Cl)c3Cl)CC2)C1)c1ncco1 [hydrochloride]; 14

Okay, now this compound:
Please look up its solubility at 24 h: O=C(N[C@H]1C[C@H](CCN2CCN(c3cccc(Cl)c3Cl)CC2)C1)c1ncco1 [crystal form B of free base]
44
